Molecular target: smooth muscle angiotensin II receptor
Assay: Assay A: Angiotensin II Binding Activity (displacement of 125I-angiotensin II, rat uterine membrane preparation)
Conditions: 50% displacement of specifically bound 125I-AII; rat uterine membranes, 25° C., 60 min, pH 7.5
property_measured: IC50 (nM)
// note: answer is a bare numeric in nM

chemical_string	numeric_value
CCCCc1nc(CCCC)n(Cc2ccc(-n3c(Cl)cc(Cl)c3-c3nnn[nH]3)cc2)n1	52

Lab note: compound "CCCCc1nc(CCCC)n(Cc2ccc(-n3c(Br)ccc3-c3nnn[nH]3)cc2)n1" tested on smooth muscle angiotensin II receptor; recorded IC50 was 110

Measured values drawn from patent US5175180A for this set.
